Overview of reported pIC50 across a group of compounds:
- system.under.test: PLK1 (Homo sapiens)
- Sequence (P53350 whole entry): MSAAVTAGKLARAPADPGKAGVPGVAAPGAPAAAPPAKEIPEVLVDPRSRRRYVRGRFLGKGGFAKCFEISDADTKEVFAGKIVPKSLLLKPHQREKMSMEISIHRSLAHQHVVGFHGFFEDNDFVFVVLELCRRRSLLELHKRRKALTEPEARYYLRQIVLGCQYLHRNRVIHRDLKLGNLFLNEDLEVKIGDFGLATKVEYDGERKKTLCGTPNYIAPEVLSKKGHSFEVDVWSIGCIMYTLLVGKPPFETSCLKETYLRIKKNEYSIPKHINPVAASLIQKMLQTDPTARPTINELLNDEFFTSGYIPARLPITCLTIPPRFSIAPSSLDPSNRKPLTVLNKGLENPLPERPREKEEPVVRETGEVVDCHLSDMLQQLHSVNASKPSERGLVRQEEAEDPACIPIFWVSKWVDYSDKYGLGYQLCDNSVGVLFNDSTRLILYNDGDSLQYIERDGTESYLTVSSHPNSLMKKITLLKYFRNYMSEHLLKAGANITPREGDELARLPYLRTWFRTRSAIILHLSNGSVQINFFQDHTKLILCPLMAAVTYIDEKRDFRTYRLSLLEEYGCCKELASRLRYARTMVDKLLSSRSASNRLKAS
- protocol.text: PLK1 protein kinase assay (CDC25C phosphorylation, [γ-32P]-ATP)
- Format: biochemical
- cond: Table 1; read-out: PLK1 IC50
pIC50: −log10 of the molar value.

Use these answered entries as a reference point.
compound: COc1cc(C(=O)NC2CCN(C)CC2)ccc1Nc1ncc2c(n1)N(C1CCOCC1)CCC(=O)N2C
system.under.test: PLK1 (Homo sapiens)
measured.attribute: pIC50
measured.value: > 6.00
//
compound: COc1cc(C(=O)NC2CCN(C)CC2)ccc1Nc1ncc2c(n1)N(C1CCCC1)CC1(CC1)C(=O)N2C
system.under.test: PLK1 (Homo sapiens)
measured.attribute: pIC50
measured.value: > 7.00
//
compound: CC1CC(=O)N(C)c2cnc(Nc3ccc(C(=O)O)cc3)nc2N1C1CCCC1 (centres unmarked)
system.under.test: PLK1 (Homo sapiens)
measured.attribute: pIC50
measured.value: > 6.00
//
compound: CC1CC(=O)Nc2cnc(Nc3ccc(C(=O)O)cc3)nc2N1C1CCCC1 (centres unmarked)
system.under.test: PLK1 (Homo sapiens)
measured.attribute: pIC50
measured.value: > 6.00
//
compound: CC1CC(=O)N(C)c2cnc(Nc3ccc(O)cc3)nc2N1C1CCCC1 (centres unmarked)
system.under.test: PLK1 (Homo sapiens)
measured.attribute: pIC50
measured.value: > 5.00
//
compound: O=C1CCN(C2CCCCC2)c2nc(Nc3ccc(O)cc3)ncc2N1
system.under.test: PLK1 (Homo sapiens)
measured.attribute: pIC50
measured.value: > 5.00
//
compound: COc1cc(C(=O)NC2CCN(C)CC2)ccc1Nc1ncc2c(n1)N(C1CCCC1)C(C(C)C)CC(=O)N2C (centres unmarked)
system.under.test: PLK1 (Homo sapiens)
measured.attribute: pIC50
measured.value: > 5.00
//
compound: CN1C(=O)CCN(c2ccccc2)c2nc(Nc3ccc(C(=O)O)cc3)ncc21
system.under.test: PLK1 (Homo sapiens)
measured.attribute: pIC50
measured.value: > 5.00

Entry COc1cc(C(=O)NC2CCN(C)CC2)ccc1Nc1ncc2c(n1)N(c1ccccc1)CCC(=O)N2C , tested on PLK1 (Homo sapiens), has a reported pIC50 of > 6.00

Entry COc1cc(C(=O)NC2CCN(C)CC2)ccc1Nc1ncc2c(n1)N(C1CCCCC1)CCC(=O)N2 , tested on PLK1 (Homo sapiens), has a reported pIC50 of > 5.00

Entry CCC(CC)N1CCC(=O)N(C)c2cnc(Nc3ccc(C(=O)NC4CCN(C)CC4)cc3OC)nc21 , tested on PLK1 (Homo sapiens), has a reported pIC50 of > 5.00

Numbers sourced from patent US8563542B2.
